Molecular target: Hexose transporter 1 (Plasmodium falciparum) (UniProt O97467)
Assay: ST_JUDE_LEISH: Cytotoxicity at 2uM final concentration against transgenic Leishmania Mexicana promastigotes LmPfHT that are glucose transport deficient and complemented with the Plasmodium falciparum hexose transporter. Activity is measured by DNA content using SYBR green in vitro
Assay type: functional
Each record here notes measured inhibition.
Unit % implied. Number only.

| smiles str | observation type | measure unit | readout number |
| --- | --- | --- | --- |
| CS(=O)(=O)Cc1ccc(Nc2nccc(-c3c(-c4cccc(NC(=O)c5c(F)cccc5F)c4)nn4ccccc34)n2)cc1 | inhibition | % | 18.8 |
| Nc1ccc(-c2ccc3ccnc(N)c3c2)cn1 | inhibition | % | -1.53 |

(Q) Form field - read-out: inhibition; system: Hexose transporter 1 (Plasmodium falciparum) (UniProt O97467); submitted item: "Cc1cc(NC(=O)NCCN2CCC(NC(=O)c3ccc(C(F)(F)F)cc3)CC2)c2ccccc2n1"
(A) 0.01

(Q) Form field - read-out: inhibition; system: Hexose transporter 1 (Plasmodium falciparum) (UniProt O97467); submitted item: "CN(/N=C/c1ccc(Cl)cc1)c1nc(NCCc2ccc(O)cc2)nc(N2CCNCC2)n1"
(A) 6.81

* * *

Target: Solute carrier family 2, facilitated glucose transporter member 1 (Homo sapiens) (UniProt P11166)
Sequence (P11166 whole entry): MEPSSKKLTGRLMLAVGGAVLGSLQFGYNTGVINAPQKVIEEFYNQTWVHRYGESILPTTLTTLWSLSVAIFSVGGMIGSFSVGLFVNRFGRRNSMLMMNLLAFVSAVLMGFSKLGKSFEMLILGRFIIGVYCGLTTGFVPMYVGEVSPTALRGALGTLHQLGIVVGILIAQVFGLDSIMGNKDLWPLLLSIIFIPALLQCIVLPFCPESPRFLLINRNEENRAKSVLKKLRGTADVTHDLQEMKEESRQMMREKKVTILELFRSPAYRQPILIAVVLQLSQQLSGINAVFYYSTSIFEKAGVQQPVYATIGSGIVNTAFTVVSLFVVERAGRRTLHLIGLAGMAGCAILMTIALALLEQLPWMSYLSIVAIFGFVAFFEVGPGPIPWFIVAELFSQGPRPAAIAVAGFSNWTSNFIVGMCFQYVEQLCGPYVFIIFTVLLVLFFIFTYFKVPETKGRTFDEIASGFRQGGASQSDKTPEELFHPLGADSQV
Assay: ST_JUDE_LEISH: Cytotoxicity at 2uM final concentration against transgenic Leishmania Mexicana promastigotes LmGLUT1 that are glucose transport deficient and complemented with the human glucose transporter GLUT1. Activity is measured by DNA content using SYBR green in vitro
Assay type: functional
Each record here notes measured inhibition.

Guide cases for inhibition, answers given:
| compound | inhibition |
| --- | --- |
| CCCc1cc(OC)c(C[C@H]2c3cc(O)c(Cl)cc3CCN2C)cc1OC | 0.24% |
| Cc1ccc(C(=O)Nc2ccc(F)c(F)c2F)cc1S(=O)(=O)N1CCCCC1 | 4.08% |
| O=C(/C=C/c1ccc(C(F)(F)F)cc1)NCCCCCN1CCCN(C(=O)Nc2ccc(F)c(Cl)c2)CC1 | 1.19% |
| Fc1ccccc1COc1ccc(Nc2ncnc3ccc(-c4nnc(C(F)(F)F)o4)cc23)cc1Cl | 6.41% |

(Q) State the recorded inhibition for this entry: "O=S(=O)(c1ccccc1Cl)N1CCCCC(c2ccc(C(F)(F)F)cc2)=N1"
(A) 1.24%

(Q) State the recorded inhibition for this entry: "O=[N+]([O-])c1cccc(CNC2CCN(Cc3ccc(Cl)c(Cl)c3)CC2)c1"
(A) 7.37%

(Q) State the recorded inhibition for this entry: COc1ccc(N2C(=O)C3C(C2=O)C2(C)c4ccccc4C3(C)c3ccccc32)c([N+](=O)[O-])c1 (stereo not drawn)
(A) 9.9%

(Q) State the recorded inhibition for this entry: "COc1ccc(-c2cnc3[nH]cc(-c4ccc(CCC(=O)O)cc4)c3c2)cn1"
(A) 5.06%

* * *

Biological target: Hexose transporter 1 (Plasmodium falciparum)
Assay: ST_JUDE_LEISH: Cytotoxicity at 2uM final concentration against transgenic Leishmania Mexicana promastigotes LmPfHT that are glucose transport deficient and complemented with the Plasmodium falciparum hexose transporter. Activity is measured by DNA content using SYBR green in vitro
Type: functional
Each record here notes measured inhibition.
Unit % implied. Number only.

Guide cases for inhibition, answers given:
| compound | measured on | inhibition, % |
| --- | --- | --- |
| COc1ccc(CNCc2ccccc2)cc1-c1ccc(S(=O)(=O)NCCN2CCCC2)c(C)c1 | Hexose transporter 1 (Plasmodium falciparum) | -0.54 |
| COc1ccc(F)cc1-c1ccc(C(=O)N2CCCN(c3ccc(C#N)cn3)CC2)cc1 | Hexose transporter 1 (Plasmodium falciparum) | 0.21 |
| Cc1cc(N[C@@H](Cc2ccccc2)C(=O)NC2CCCC2)nc(NCC2CCCCC2)n1 | Hexose transporter 1 (Plasmodium falciparum) | 3.67 |

(Q) State the recorded inhibition for this entry: "O=C(NC1CCN(Cc2ccccc2)CC1)c1cccc(-c2cc3cc(Cl)c(Cl)cc3[nH]2)c1"
(A) -1.61

(Q) State the recorded inhibition for this entry: CCOC(=O)C1=C(C)NC2=C(C(=O)C(C(=O)OC)C(C)C2)C1c1cc(Br)c(OCC)c(OC)c1 (configuration not stated)
(A) 6.84

(Q) State the recorded inhibition for this entry: Cc1cc(C(=O)CN2C(=O)NC3(CCOc4ccccc43)C2=O)c(C)n1Cc1ccc(F)cc1 (configuration not stated)
(A) 2.31

(Q) State the recorded inhibition for this entry: "CN1CCC(N(Cc2ccc(-c3ccc(Cl)cc3)cc2)C(=O)Cn2c(CCc3cccc(F)c3F)cc(=O)c3ccccc32)CC1"
(A) 3.73

(Q) State the recorded inhibition for this entry: "CC(C)COc1ccc(Cl)cc1Cc1nc(-c2nc3ccc(CN(C)C)cc3[nH]2)co1"
(A) 4.73

(Q) State the recorded inhibition for this entry: "Cc1ccc(NC(=O)Nc2ccc(Cl)c(C(F)(F)F)c2)cc1-c1ccc(C(=O)NCCN2CCOCC2)cc1"
(A) 5.32

(Q) State the recorded inhibition for this entry: "CCn1c(C)cc(C=C2SC(=Nc3ccccc3)NC2=O)c1C"
(A) 4.18

(Q) State the recorded inhibition for this entry: CC1CN(c2ccc(NC(=O)c3cccs3)cc2)CCN1Cc1cccc(F)c1 (configuration not stated)
(A) -0.85

(Q) State the recorded inhibition for this entry: "CN1CCN(c2ccnc3cc4ccccc4cc23)CC1"
(A) -3.08
